System: KM12 colon
Assay: NCI tumour cell line growth inhibition, 48 h

COMPOUND: COc1cc2cc(C(=O)N3CC(COS(C)(=O)=O)c4ccc(NC(=O)OCc5ccccc5)cc43)[nH]c2c(OC)c1OC (stereo not given)
TGI: > 100 µM

COMPOUND: O=c1cccccc1[O-].O=c1cccccc1[O-].O=c1cccccc1[O-].[Eu+3]
TGI: > 100 µM

COMPOUND: CC(C)(C)OC(=O)NC12C3C4C1C1C2C3C41NC(=O)OC(C)(C)C (stereo not given)
TGI: 39.3 µM

COMPOUND: COc1ccc(C#Cn2nnc3ccccc32)cc1
TGI: > 100 µM

COMPOUND: C#CC1(O)CCC2C3CCc4cc(Oc5nc(F)nc(-c6c7ccccc7c7n6CCS7)n5)ccc4C3CC[C@@]21C (stereo not given in full)
TGI: 28.3 µM

COMPOUND: Cc1ccc(S(=O)(=O)Oc2ccc3c4c(c(=O)oc3c2)CCCCCC4)cc1
TGI: > 100 µM

COMPOUND: CCN1C/C(=C\c2ccc(Cl)cc2)c2nc(N)c(C#N)c(-c3ccc(Cl)cc3)c2C1
TGI: > 100 µM

COMPOUND: O=C(COc1ccc(OCC(=O)N2C(=O)CC(=O)N(c3ccc(Cl)cc3)C2=S)cc1)N1C(=O)CC(=O)N(c2ccc(Cl)cc2)C1=S
TGI: 41.6 µM

COMPOUND: O=[N+]([O-])/C=C/c1c(Cl)cccc1Cl
TGI: 5.28 µM

COMPOUND: COc1ccccc1-n1c(=O)n(C)c(=O)n1C(C)(C)C
TGI: > 100 µM
